test system: WHIM2 (cells of a triple-negative basal-like breast cancer xenograft); test: cell viability (% of vehicle); higher = less cytotoxic; conditions: 10 µM; 72 h
PROPERTY NAME: cell viability
Lab note: jot the number down without any unit.

// solved cases for cell viability follow
| COMPOUND | cell viability |
| --- | --- |
| COCCc1ccc(OCC(O)CNC(C)C)cc1.COCCc1ccc(OCC(O)CNC(C)C)cc1.O=C(O)C(O)C(O)C(=O)O (stereo not given) [Metoprolol Tartrate] | 94.4 |
| OCCOc1ccc(C(=C(CCCl)c2ccccc2)c2ccccc2)cc1 [Ospemifene] | 78.5 |
| CO/N=C(\C(=O)N[C@@H]1C(=O)N2C(C(=O)O)=C(CSc3nc(=O)c(O)nn3C)CS[C@H]12)c1csc(N)n1 [Ceftriaxone Sodium Trihydrate] | 130 |
| COc1cc2c(Oc3ccc4[nH]c(C)cc4c3F)ncnc2cc1OCCCN1CCCC1 [Cediranib (AZD217)] | 38.2 |
| CCN(CCO)CCCOc1ccc2c(Nc3cc(CC(=O)Nc4cccc(F)c4)[nH]n3)ncnc2c1 [Barasertib (AZD1152-HQPA)] | 89.4 |

QUERY: State the recorded cell viability for this entry: Nc1nc(F)nc2c1ncn2C1OC(COP(=O)(O)O)C(O)C1O (stereo not given) [Fludarabine Phosphate (Fludara)]
RESULT: 127

QUERY: // query cell viability value for entry CNCC(O)C(O)C(O)C(O)CO.Cc1c(Nc2ncccc2C(=O)O)cccc1C(F)(F)F [Flunixin Meglumin]
RESULT: 130

QUERY: Entry O=C([C@H](CCC/N=C(N)/N)NS(=O)(C1=C2NC[C@H](C)CC2=CC=C1)=O)N3[C@@H](C(O)=O)C[C@H](C)CC3 [Argatroban] has what cell viability?
RESULT: 98.9

QUERY: For the compound C#CCNC1CCc2ccccc21.CS(=O)(=O)O (stereo not given) [Rasagiline Mesylate] , what cell viability is on record?
RESULT: 114

QUERY: Field request: cell viability | item: Cc1cnc(C(=O)O)c[n+]1[O-] [Acipimox]
RESULT: 108

QUERY: Dear colleague, I am looking for the recorded cell viability of the following compound: O=C(NCCN1CCOCC1)c1ccc(Cl)cc1
RESULT: 111

QUERY: Find the recorded cell viability belonging to CCOC(=O)c1ncn2c1CN(C)C(=O)c1cc(F)ccc1-2 [Flumazenil] and report it.
RESULT: 103

QUERY: Value lookup for cell viability; key = CC(=O)O[C@H]1Cc2ccccc2N(C(N)=O)c2ccccc21 [Eslicarbazepine acetate]
RESULT: 102

QUERY: Entry O=P(O)(O)C(O)(Cn1ccnc1)P(=O)(O)O [Zoledronic Acid] has what cell viability?
RESULT: 68.7

QUERY: I am curious: what cell viability value has been reported for OCC1OC(c2ccc(Cl)c(Cc3ccc(OC4CCOC4)cc3)c2)C(O)C(O)C1O (stereo not given) ?
RESULT: 112

QUERY: Fill in the blank: the reported cell viability of Clc1ccc(COC(Cn2ccnc2)c2ccc(Cl)cc2Cl)c(Cl)c1 (stereo not given) [Miconazole] is ____.
RESULT: 99.6

QUERY: Look up cell viability for this compound: CCOC(=O)n1ccn(C)c1=S [Carbimazole]
RESULT: 104

====

Measured cell viability accompanies every entry in the list below.
test system: HCI11 (cells of an ER-positive luminal breast cancer xenograft); experiment: cell viability (% of vehicle); higher = less cytotoxic; details: 10 µM; 72 h
Give only the figure.

Here is how some molecules turned out for cell viability.
| MOLECULE | cell viability |
| --- | --- |
| COc1ccc(C2CNC(=O)C2)cc1OC1CCCC1 (stereo not drawn) [S- (+)-Rolipram] | 121 |
| CN(C)c1ccc(O)c2c1CC1CC3C(N(C)C)C(=O)C(C(N)=O)=C(O)C3(O)C(=O)C1=C2O.Cl (configuration not stated) [Minocycline HCl] | 52.6 |
| Cc1cccn2c(=O)c(-c3nnn[n-]3)cnc12.[K+] [Pemirolast potassium] | 90.1 |
| COc1c(C)c2c(c(O)c1CC=C(C)CCC(=O)OCCN1CCOCC1)C(=O)OC2 [Mycophenolate Mofetil] | 103 |
| Nc1nc(=O)c2c(CCc3ccc(C(=O)NC(CCC(=O)[O-])C(=O)[O-])cc3)c[nH]c2[nH]1.[Na+].[Na+] (configuration not stated) [Pemetrexed] | 92.9 |

QUERY: What does the data say about its cell viability? Entry: O=C1Cc2cc(CCN3CCN(c4nsc5ccccc45)CC3)c(Cl)cc2N1 [Ziprasidone]
RESULT: 96.1

QUERY: Need cell viability of CC(C)(C)C(=O)OCOP(=O)(COCCn1cnc2c(N)ncnc21)OCOC(=O)C(C)(C)C [Adefovir Dipivoxil] , thanks.
RESULT: 105

====

tested on: WHIM30 (cells of a triple-negative basal-like breast cancer xenograft); experiment: cell viability (% of vehicle); higher = less cytotoxic; details: 10 µM; 72 h
Mark fulfilled only when cell viability stays strictly below 100. Values equal to the cut-off are not fulfilled.

Example entries begin here.
| MOLECULE | LABEL CLASS |
| --- | --- |
| CCn1cc(C(=O)O)c(=O)c2ccc(C)nc21 | not fulfilled |
| Cc1ccc(Nc2nccc(N(C)c3ccc4c(C)n(C)nc4c3)n2)cc1S(N)(=O)=O.Cl | not fulfilled |
| Clc1ccc(CCC(Cn2ccnc2)Sc2c(Cl)cccc2Cl)cc1.O=[N+]([O-])O (stereo unspecified) [Butoconazole nitrate] | not fulfilled |
| CN1CCN(CCOc2cc(OC3CCOCC3)c3c(Nc4c(Cl)ccc5c4OCO5)ncnc3c2)CC1 | fulfilled |
| CS(=O)(=O)c1ccc(C2=C(c3ccccc3)C(=O)OC2)cc1 | fulfilled |
| CC(NCCCc1cccc(C(F)(F)F)c1)c1cccc2ccccc12 (stereo unspecified) | fulfilled |
| COCCCOc1ccnc(C[S+]([O-])c2nc3ccccc3[nH]2)c1C (stereo unspecified) | not fulfilled |
| CCN(CC)CCNC(=O)c1ccc(N)cc1.Cl [Procainamide HCl] | not fulfilled |
| CCN(CC)CCNC(=O)c1c(C)[nH]c(C=C2C(=O)Nc3ccc(F)cc32)c1C.O=C(O)CC(O)C(=O)O [Sunitinib malate] | fulfilled |
| Cl.Cl.O=C(O)COCCN1CCN(C(c2ccccc2)c2ccc(Cl)cc2)CC1 (stereo unspecified) [Cetirizine DiHCl] | not fulfilled |

QUERY: Would you kindly verify if cell viability of CCC1OC(=O)C(C)C(OC2CC(C)(OC)C(O)C(C)O2)C(C)C(OC2OC(C)CC(N(C)C)C2O)C(C)(O)CC(C)C(=O)C(C)C(O)C1(C)O (stereo unspecified) is strictly less than 100?
RESULT: not fulfilled

QUERY: Is cell viability of Cc1ccc(C2OC(CO)C(O)C(O)C2O)cc1Cc1ccc(-c2ccc(F)cc2)s1 (stereo unspecified) strictly below 100?
RESULT: not fulfilled

QUERY: Is 100 strictly greater than the molecule's reported cell viability? molecule: COc1cc(CNC(=O)CCCCC=CC(C)C)ccc1O
RESULT: not fulfilled

QUERY: Given CN1CCCN=C1C=Cc1cccs1.O=C(O)c1cc2ccccc2c(Cc2c(O)c(C(=O)O)cc3ccccc23)c1O [Pyrantel Pamoate] , is recorded cell viability strictly lower than 100?
RESULT: not fulfilled

QUERY: Answer whether the molecule CN(C)NN=C1N=CN=C1C(N)=O has cell viability strictly less than 100
RESULT: not fulfilled

====

system: HCI16 (cells of a triple-negative basal-like breast cancer xenograft); assay: cell viability (% of vehicle); higher = less cytotoxic; settings: 10 µM; 72 h
Where a name gives a salt, the structure may show the parent alone.
Listed here are compounds together with their documented cell viability.
// no unit string in output, number only

# count of solved cases: 5
| COMPOUND | cell viability |
| --- | --- |
| NCC1OC(OC2C(CO)OC(OC3C(O)C(N)CC(N)C3OC3OC(CN)C(O)C(O)C3N)C2O)C(N)C(O)C1O.O=S(=O)(O)O (stereo unspecified) [Neomycin sulfate] | 111 |
| NCC(=O)CCC(=O)O [5-Aminolevulinic acid HCl] | 164 |
| CNC(=O)c1ccccc1Sc1ccc2c(C=Cc3ccccn3)n[nH]c2c1 | 150 |
| O=C(Nc1cccc2c(=O)cc(-c3nn[nH]n3)oc12)c1ccc(OCCCCc2ccccc2)cc1 | 147 |
| CCCNCC(O)COc1ccccc1C(=O)CCc1ccccc1.Cl (stereo unspecified) [Propafenone HCl] | 101 |

// next entry
QUERY: Dear colleague, I am looking for the recorded cell viability of the following compound: CO[C@H]1C[C@@H]2CC[C@@H](C)[C@@](O)(O2)C(=O)C(=O)N2CCCC[C@H]2C(=O)O[C@H]([C@@H](C)C[C@@H]2CC[C@@H](OCCO)[C@H](OC)C2)CC(=O)[C@H](C)/C=C(\C)[C@@H](O)[C@@H](OC)C(=O)[C@H](C)C[C@H](C)/C=C/C=C/C=C/1C [Everolimus (RAD001)]
RESULT: 179

====

tested on: WHIM30; experiment: cell viability (% of vehicle); higher = less cytotoxic; conditions: 1 µM; 72 h
Output condition met for records whose cell viability is lower than 80, condition not met for records at or above 80.

Example results:
| COMPOUND | LABEL CLASS |
| --- | --- |
| CCCCCOc1ccc(-c2ccc(-c3ccc(C(=O)N[C@H]4C[C@@H](O)[C@@H](O)NC(=O)[C@@H]5[C@@H](O)[C@@H](C)CN5C(=O)[C@H]([C@@H](C)O)NC(=O)[C@H]([C@H](O)[C@@H](O)c5ccc(O)cc5)NC(=O)[C@@H]5C[C@@H](O)CN5C(=O)[C@H]([C@@H](C)O)NC4=O)cc3)cc2)cc1 [Anidulafungin] | condition met |
| COC(=O)NC(C(=O)N1CCCC1c1ncc(-c2ccc(-c3ccc(-c4cnc(C5CCCN5C(=O)C(NC(=O)OC)C(C)C)[nH]4)cc3)cc2)[nH]1)C(C)C (stereo unspecified) | condition not met |
| C1=C\COCc2cc(ccc2OCCN2CCCC2)Nc2nccc(n2)-c2cccc(c2)COC/1 [Pacritinib] | condition met |
| COc1cc2c(Nc3ccc(Br)cc3F)ncnc2cc1OCC1CCN(C)CC1 [Vandetanib (ZD6474)] | condition met |

Moving on to the next compound.
QUERY: Please indicate whether the reported cell viability of Nc1c(CC(=O)[O-])cccc1C(=O)c1ccccc1.O.[Na+] [Amfenac Sodium Monohydrate] is strictly below 80.
RESULT: condition not met
